Sourced from patent US5747239A

- Tested on: antibodies to HCV
- assay-text: Envelope/NS-1 peptide ELISA, anti-HCV positive plasmapheresis donors with elevated ALT (Panel III)
- Assay type: binding, human
- assay-conditions: envelope/NS-1 peptides; Panel III (17 samples); peptide 254B as a standard
So I've got a bunch of sequences here, and I need their % Relative Immunoreactivity values.
Kindly provide the numeric value in % only, without the unit symbol.

IN: Quick one: % Relative Immunoreactivity for CWVAMTPIVATRDGKLPATQLRRHIDLLVGSATLC [244A] ?
OUT: 3.8

IN: # get_value(readout='% Relative Immunoreactivity', item= INSTALNCNESLNTGWLAGLIYQHKFNSSGCPERLASC [246C] )
OUT: 97.6

IN: Entry CNESLNTGWLAGLIYQHKFNSSGCPERLASC [246B] has what % Relative Immunoreactivity?
OUT: 19.8

IN: Entry CVREGNVSRCWVAMTPTVATRDGKLPATQLRRHIDLLVGSATLC [244B] : reported % Relative Immunoreactivity = ?
OUT: 5.8

IN: Dear colleague, I am looking for the recorded % Relative Immunoreactivity of the following sequence: CGSVFLIGQLFTFSPRRHWTTQGCNCSIYPGHITGHRMAWDMMMNWSPTA [254C]
OUT: 16.7

IN: For WHINSTALNCNESLNTGWLAGLIYQHKFNSSGCPERLASC [246D] , what is its reported % Relative Immunoreactivity?
OUT: 98.6

IN: What does the data say about its % Relative Immunoreactivity? Entry: KQNIQLINTNGSWHINSTALNCNESLNTGWLAGLIYQHKFNSSGCPERLASC [246E]
OUT: 10.5

IN: Quick one: % Relative Immunoreactivity for CLTVPASAYQVRNSTGLYHVTNDCPNSSIVYEAHDAILHTPGCVPCVREGNVSRC [255C] ?
OUT: 51.4

IN: GET /values?readout=% Relative Immunoreactivity&item= TNDCPNSSIVYEAHDAILHTPGCVPCVREGNVSRC [255A]
OUT: 9.8

IN: Data request, read-out % Relative Immunoreactivity, for VRNSTGLYHVTNDCPNSSIVYEAHDAILHTPGCPCVREGNVSRC [255B]
OUT: 18.7

IN: What value of % Relative Immunoreactivity has been reported for the following sequence? TQGCNCSIYPGHITGHRMAWDMMMWSPTA [254A]
OUT: 21.4
